# Tested on: SW480
# protocolSummary: drug sensitivity score (DSS, integrated dose-response area); higher = more sensitive (stronger viability reduction); extreme values may be limits of the assay
# settings: shRNA: SND1 shRNA1 (SND1 silenced)
In this section, each of the compounds is paired with its reported drug sensitivity score.
Please respond with the number in DSS and leave the unit unwritten.

Example entries begin here.
[
  {
    "compound": "CCC1(c2ccc(N)cc2)CCC(=O)NC1=O (stereo not given) [Aminoglutethimide]",
    "drug sensitivity score, DSS": 0
  },
  {
    "compound": "Cc1c(NC(=O)OC[C@@H]2COCCN2)cn2ncnc(Nc3ccc4c(cnn4Cc4cccc(F)c4)c3)c12",
    "drug sensitivity score, DSS": 2
  },
  {
    "compound": "CC[C@@H]1C(=O)OC[C@@H]1Cc1cncn1C",
    "drug sensitivity score, DSS": 0.6
  }
]

Query :: Fill blank: measured drug sensitivity score of the compound C#Cc1cccc(Nc2ncnc3cc(OC)c(OCCCCCCC(=O)NO)cc23)c1 is ____.
Result :: 11.3

Query :: // same read-out, input: CN1CCN(CCOc2cc(OC3CCOCC3)c3c(Nc4c(Cl)ccc5c4OCO5)ncnc3c2)CC1
Result :: 1.4
